// provenance: ChEMBL document CHEMBL5137099

# experiment: Clearance in C57BL/6 mouse at 2 mg/kg, iv by LC-MS/MS analysis
# Assay type: ADME, organism-based
# condition_summary: in vivo
measured_attribute: clearance

# molecule, result
records = [
    ("O=C(O)C1CCN(c2ccc3c(=O)c4cccc(Cl)c4oc3c2)C1 (racemic)", "17.6 mL/min/kg"),
]

* * *

# experiment: Octanol-aqueous buffer distribution coefficient, log D of the compound at pH 7.4 by CAMDIS assay
# Assay type: physicochemical
logD of 1 or higher: class 1. Under 1: class 0.

# compound, assigned_label
measured = [
    ("CCOc1ccc(Cl)c2oc3cc(N4CCC(C(=O)O)C4)ccc3c(=O)c12 (stereo not drawn)", "class 0"),
    ("O=C(O)C1CCN(c2cc3oc4c(Cl)cccc4c(=O)c3cc2F)C1 (stereo not drawn)", "class 1"),
    ("O=C(O)C1CCN(c2ccc3c(=O)c4cccc(Cl)c4oc3c2)C1 (racemic)", "class 1"),
    ("Cc1cc2c(=O)c3cccc(Cl)c3oc2cc1N1CCC(C(=O)O)C1 (stereo not drawn)", "class 1"),
    ("O=C(O)C1CCN(c2ccc3c(=O)c4c(Cl)ccc(Cl)c4oc3c2)C1 (single isomer, unassigned)", "class 1"),
    ("COc1ccc(Cl)c2oc3cc(N4CCC(C(=O)O)C4)ccc3c(=O)c12 (stereo not drawn)", "class 0"),
    ("O=C(O)C1CCN(c2ccc3c(=O)c4c(C(F)(F)F)ccc(Cl)c4oc3c2)C1 (stereo not drawn)", "class 1"),
    ("O=C(O)C1CCN(c2cc3oc4c(Cl)cccc4c(=O)c3cc2Cl)C1 (stereo not drawn)", "class 1"),
]
